test-target: NLRP3 (Homo sapiens)
Sequence (Q96P20 whole entry): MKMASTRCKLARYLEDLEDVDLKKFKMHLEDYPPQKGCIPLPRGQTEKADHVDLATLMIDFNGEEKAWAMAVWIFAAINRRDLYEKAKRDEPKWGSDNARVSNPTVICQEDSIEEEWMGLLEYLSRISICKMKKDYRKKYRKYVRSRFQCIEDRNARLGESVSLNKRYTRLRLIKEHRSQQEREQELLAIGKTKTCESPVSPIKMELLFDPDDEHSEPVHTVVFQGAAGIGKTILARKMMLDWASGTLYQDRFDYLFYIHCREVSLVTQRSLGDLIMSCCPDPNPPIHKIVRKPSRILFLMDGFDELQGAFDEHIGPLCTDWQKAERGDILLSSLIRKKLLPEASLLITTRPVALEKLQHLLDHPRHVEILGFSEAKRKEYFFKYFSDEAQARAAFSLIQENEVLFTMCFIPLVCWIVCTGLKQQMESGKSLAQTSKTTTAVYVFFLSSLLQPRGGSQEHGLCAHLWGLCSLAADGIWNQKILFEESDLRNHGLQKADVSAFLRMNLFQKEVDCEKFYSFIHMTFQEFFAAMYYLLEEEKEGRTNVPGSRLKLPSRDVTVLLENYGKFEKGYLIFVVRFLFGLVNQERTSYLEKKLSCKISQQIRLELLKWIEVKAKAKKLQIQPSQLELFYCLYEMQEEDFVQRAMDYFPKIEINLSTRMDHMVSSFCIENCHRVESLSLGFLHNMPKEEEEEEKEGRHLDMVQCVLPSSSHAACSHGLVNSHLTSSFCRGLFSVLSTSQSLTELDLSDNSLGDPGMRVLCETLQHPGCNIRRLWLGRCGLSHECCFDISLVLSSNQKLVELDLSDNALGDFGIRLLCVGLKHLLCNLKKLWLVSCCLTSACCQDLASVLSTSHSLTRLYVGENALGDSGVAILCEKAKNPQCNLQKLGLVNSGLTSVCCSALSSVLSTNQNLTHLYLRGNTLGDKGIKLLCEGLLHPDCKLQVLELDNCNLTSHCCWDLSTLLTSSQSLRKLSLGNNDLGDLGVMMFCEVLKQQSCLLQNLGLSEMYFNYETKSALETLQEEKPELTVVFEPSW
measurement-protocol: Human whole blood IL-1β release assay
Format: cell-based
Parameters: Human whole blood in Li-heparin tubes was obtained from healthy donors; from tissue; host or cells: human whole blood from healthy donors
condition-parameters: LPS 1 μg/ml, nigericin 10 μM, IL-1β AlphaLisa, read-out: Human whole blood IL-1ß Assay IC50
Description: For systemic delivery, the ability to inhibit NLRP3 when the compounds are present within the bloodstream is of great importance. For this reason, the NLRP3 inhibitory activity of a number of compounds in human whole blood was investigated in accordance with the following protocol. Human whole blood in Li-heparin tubes was obtained from healthy donors from a volunteer donor panel. • 1. […] IL-1β was measured according to the manufacturer protocol (Perkin Elmer-AlphaLisa IL-1 Kit AL220F-5000) • 8. […]
For each entry below, report its IC50 value.
One number for each entry, in nM.

These recorded examples may help you get a feel for the data.
structure-notation	test-target	test-result
CCN1CCC[C@@H](Nc2nnc(-c3ccc4c(c3O)CCC4)n(C)c2=O)C1	NLRP3 (Homo sapiens)	8
CCN1CCC[C@@H](Nc2nnc(-c3ccc4c(c3O)CC4)n(C)c2=O)C1	NLRP3 (Homo sapiens)	10

I'd like to know its IC50. The compound in question is CCN1CCC[C@@H](N(C)c2nnc(-c3ccc4c(c3O)CCC4)n(C)c2=O)C1 26
